A collection of compounds and their measured inhibition
Target: Protein kinase C beta type (Homo sapiens);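 further: PKC-beta1 splice variant of the enzyme, figure reported as mean inhibition, measured within the GSK PKIS kinase profiling panel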
Details: at 0.1 µM
Description: GSK_PKIS: PKC-beta1 (splice variant) mean inhibition at 0.1 uM [Nanosyn]
measurement-name: inhibition (%)

[
  {
    "compound": "CS(=O)(=O)CCNCc1ccc(-c2ccc3ncnc(Nc4ccc(OCc5ccccc5)c(Cl)c4)c3c2)o1",
    "recorded-value": -1.09
  },
  {
    "compound": "COC(=O)Nc1nc2cc(Oc3ccc(NC(=O)Nc4cccc(C(=O)O)c4)cc3)ccc2[nH]1",
    "recorded-value": 0.02
  },
  {
    "compound": "Fc1cccc(COc2ccc(Nc3ncnc4sc(-c5cccs5)cc34)cc2Cl)c1",
    "recorded-value": -0.52
  },
  {
    "compound": "Cc1cccc(-c2n[nH]cc2-c2ccc3ncccc3n2)n1",
    "recorded-value": 0.17
  },
  {
    "compound": "CC1=C(C(=O)Nc2ccc3[nH]ncc3c2)C(c2ccc(Cl)c(Cl)c2)CC(=O)N1 (configuration not stated)",
    "recorded-value": -1.01
  },
  {
    "compound": "Fc1cccc(COc2ccc(Nc3ncnc4cc(-c5ccc[nH]5)sc34)cc2Cl)c1",
    "recorded-value": 1.37
  },
  {
    "compound": "CC(=O)Nc1cccc(C#Cc2cncnc2Nc2ccc(OCc3cccc(F)c3)c(Cl)c2)n1",
    "recorded-value": 5.03
  },
  {
    "compound": "CCc1cccc(NC(=O)Nc2ccc(Oc3ccc4nc(NC(=O)OC)[nH]c4c3)cc2)c1",
    "recorded-value": 0.28
  },
  {
    "compound": "O=C1NC(=O)C(c2cccc(Cl)c2)=C1Nc1ccc(O)c(Cl)c1",
    "recorded-value": 0.44
  },
  {
    "compound": "CCn1c(-c2nonc2N)nc2cnc(Oc3cccc(NC(=O)c4ccc(OCCN5CCOCC5)cc4)c3)cc21",
    "recorded-value": 37.3
  },
  {
    "compound": "COc1cc2c(cc1Nc1nc(N3CCc4ccccc43)c3cc[nH]c3n1)N(C(=O)CN(C)C)CC2",
    "recorded-value": 1.5
  },
  {
    "compound": "CS(=O)(=O)CCN(CC#N)Cc1ccc(-c2ccc3ncnc(Nc4ccc(OCc5cccc(F)c5)c(Cl)c4)c3c2)o1",
    "recorded-value": -0.34
  },
  {
    "compound": "Cc1nnc(-c2ccc(C)c(-c3ccc(C(=O)Nc4cccc(C#N)c4)cc3)c2)o1",
    "recorded-value": -0.92
  },
  {
    "compound": "CCn1c(-c2nonc2N)nc2cncc(C(=O)N3CC[C@H](N)C3)c21",
    "recorded-value": 43.9
  },
  {
    "compound": "NS(=O)(=O)c1cccc(-c2ccc3c(NC(=O)C4CC4)n[nH]c3c2)c1",
    "recorded-value": -0.11
  },
  {
    "compound": "COc1cc2ncn(-c3cc(O[C@H](C)c4ccccc4Cl)c(C(N)=O)s3)c2cc1OC",
    "recorded-value": 3.14
  },
  {
    "compound": "CCCN1CCC=C(c2ccc(Nc3nc(Nc4ccccc4C(N)=O)c4cc[nH]c4n3)c(C)c2)C1",
    "recorded-value": -0.14
  }
]

Each recorded value in this set is attributed to ChEMBL document CHEMBL1961873.
